method.description: recombinant barcode read abundance after kanamycin selection (control-corrected) (log10(CPM+1)); higher = more efficient recombination; sequences stand for … in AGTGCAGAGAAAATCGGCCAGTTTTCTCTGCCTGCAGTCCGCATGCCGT…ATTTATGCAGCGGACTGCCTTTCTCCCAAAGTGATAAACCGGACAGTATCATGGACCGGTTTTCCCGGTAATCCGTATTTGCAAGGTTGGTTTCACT; site = the 11-nt target
Kindly supply the reported recombinant barcode read abundance (log10) values for the records listed here.
One number for each entry.

Examples from the recorded data:
>  <sequence.text>
CATATTATGTGGGTTCTAACCTGTTGCCTAG [CATATTACTAG_LTGcore_TG_RTGcore_CT] (site CATATTACTAG) (LTG core: TG, RTG core: CT)

>  <readout.number>
0.0521

$$$$
>  <sequence.text>
TAGAGGGACTGGGTTCTAACCTGTTGCGGGT [TAGAGGGCTCC_LTGcore_AC_RTGcore_AC] (site TAGAGGGCTCC) (LTG core: AC, RTG core: AC)

>  <readout.number>
0.247

$$$$
>  <sequence.text>
AGGAGGTGCTGGGTTCTAACCTGTTGCCTAG [AGGAGGTCTAG_LTGcore_GC_RTGcore_CT] (site AGGAGGTCTAG) (LTG core: GC, RTG core: CT)

>  <readout.number>
0.292

$$$$
>  <sequence.text>
ATGCTTTCCTGGGTTCTAACCTGTTGCCTAG [ATGCTTTCTAG_LTGcore_CC_RTGcore_CT] (site ATGCTTTCTAG) (LTG core: CC, RTG core: CT)

>  <readout.number>
0.0734

$$$$
>  <sequence.text>
GAGTCCTCTTGGGTTCTAACCTGTTGCCTTA [GAGTCCTCTAG_LTGcore_CT_RTGcore_TA] (site GAGTCCTCTAG) (LTG core: CT, RTG core: TA)

>  <readout.number>
1.48

$$$$

I'm hoping you can list recombinant barcode read abundance (log10) for every sequence here, please.
1. TGATACCTATGGGTTCTAACCTGTTGCGTTA [TGATACCCTAC_LTGcore_TA_RTGcore_TA] (site TGATACCCTAC) (LTG core: TA, RTG core: TA)
2. GGCTCCCCTTGGGTTCTAACCTGTTGCGGAC [GGCTCCCCTCC_LTGcore_CT_RTGcore_GT] (site GGCTCCCCTCC) (LTG core: CT, RTG core: GT)
3. AGGCCTCTATGGGTTCTAACCTGTTGCCTTA [AGGCCTCCTAG_LTGcore_TA_RTGcore_TA] (site AGGCCTCCTAG) (LTG core: TA, RTG core: TA)
4. TAAGAATCTTGGGTTCTAACCTGTTGCCTGA [TAAGAATCTAG_LTGcore_CT_RTGcore_TC] (site TAAGAATCTAG) (LTG core: CT, RTG core: TC)

## Output
1. 0.0463
2. 0.0822
3. 0.0149
4. 0.145

I'm hoping you can list recombinant barcode read abundance (log10) for every sequence here, please.
1. AAACAGTTCTGGGTTCTAACCTGTTGCCTAG [AAACAGTCTAG_LTGcore_TC_RTGcore_CT] (site AAACAGTCTAG) (LTG core: TC, RTG core: CT)
2. ATGTCCCAGTGGGTTCTAACCTGTTGCTCCT [ATGTCCCCTGA_LTGcore_AG_RTGcore_AG] (site ATGTCCCCTGA) (LTG core: AG, RTG core: AG)

## Output
1: 0.0714; 2: 0.0318
